Test: compound binding in COS7 lysate, probe aLAP1, primary screen, cell lysate, small-molecule microarray (AID 1124);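 further: lysate comes from COS7 cells expressing LAP1 and is applied at 0.3 µg/mL; score merges spot fluorescence near 667 nm with signal-to-noise over triplicate slides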
Conditions: probe aLAP1, fluorescence, higher = more signal
Listing of entries alongside the reported composite z-score.
// return just the number, without any unit appended

sample_smiles	composite z-score
O=C1O[C@H](c2ccccc2)[C@H](c2ccccc2)N2[C@H]1[C@@H](C(=O)NC[C@H](O)c1ccccc1)[C@]1(C(=O)Nc3ccc(C#CCCO)cc31)[C@H]2c1ccc(OCCO)cc1	-0.0479

Prompt: # lookup: composite z-score of CCCNC(=O)[C@@]1(c2ccc([N+](=O)[O-])cc2)CC(=O)N(C2CCCCC2)[C@@H]1c1ccc(CO)cc1
Completion: 0.999

Prompt: # lookup: composite z-score of C[N+](C)(C)CCCC[C@@H]1NC(=O)[C@H]2C[C@@H](C(=O)NCCCCCCN)[C@@H](c3ccc(O)cc3)N2C1=O
Completion: -0.186

Prompt: # lookup: composite z-score of CCCC[C@@H](O)C1=C(COc2ccccc2)C[C@H]2C(=O)N(C)C(=O)[C@H]2[C@H]1CO
Completion: -0.357
